tested on: LXRa:RXRa (NR concentration 270 nM, RXRa partner concentration 90 nM); experiment: PBM binding z-score (relative to random genomic background probes); higher = stronger binding; sequences stand for … in GC…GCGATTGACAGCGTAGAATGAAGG
Bucketed by reported PBM binding z-score, buckets being group A (below 0.8), group B (0.8 to below 3), group C (3 or more)

Use these answered entries as a reference point.
[[record]]
biosequence = "TCGAGAAGGTTACCAATGGGGCATTCAGCTTTCT"
label_value = "group B"

[[record]]
biosequence = "CGAACTTGGTCATCCAGGACAGTGAATACATTGA"
label_value = "group A"

[[record]]
biosequence = "ATCGAAAGGACGACGAGGTGAGTATACACCGTTT"
label_value = "group A"

[[record]]
biosequence = "ATCTCTAGGTAAAAGTCCAGTGAATCCCGAGGAT"
label_value = "group A"

[[record]]
biosequence = "TTACCGAGGTGAGCTGAGGTCGTTGATCCAACTC"
label_value = "group B"


With those in mind, consider the next sequence.
Which bin, given its PBM binding z-score, does `ACTTACGGGTCAACGAGTTTATAGCACGCGTATA` occupy?
group C

* * *

tested on: THRa homodimer (NR concentration 90 nM); assay: PBM binding z-score (relative to random genomic background probes); higher = stronger binding; sequences stand for … in GC…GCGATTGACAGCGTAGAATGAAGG
Listing: PBM binding z-score of selected sequences
Give the figure by itself; no unit, no explanation.

Some solved entries appear below for comparison.
[[record]]
biosequence = "CCGACTGCGGCAGAAAGGTTACCATACCATCCGG"
value_reported = 0.00107

[[record]]
biosequence = "CCTTACGGGTCTCGAGGTTATAGCACGACGAGCG"
value_reported = -0.08

[[record]]
biosequence = "TTACCAAGGTGAAAGGTCGTTGGTGCACGCCTTG"
value_reported = 0.937

[[record]]
biosequence = "TCTATTAGTTGAAAGGCAACCGACGAGTCCGTTT"
value_reported = 0.0862

[[record]]
biosequence = "TCTTGAAGATCAAAGGTTAAGAAAGCCGAAGCCT"
value_reported = -0.659


Give PBM binding z-score for the following sequence: `CGTCCAAGGTCAAACGTCAGTGAAGAGATGACGG`
2.1

* * *

test system: PPARg:RXRa (NR concentration 180 nM, RXRa partner concentration 90 nM); assay: PBM binding z-score (relative to random genomic background probes); higher = stronger binding; sequences stand for … in GC…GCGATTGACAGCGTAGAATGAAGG
quantity kind: PBM binding z-score

[[record]]
biosequence = "GCGACTGGGGCAAAGCAGGTCACCATAAGGTTGG"
quantity_kind = "PBM binding z-score"
value_reported = 2.77

[[record]]
biosequence = "TCGAGTAGTTTACCAATGGGGCATTCAGCTTTCT"
quantity_kind = "PBM binding z-score"
value_reported = -0.798

[[record]]
biosequence = "CCTTACGGGTCACGAGGTTCTAGCACGACGAGCG"
quantity_kind = "PBM binding z-score"
value_reported = 6.59

[[record]]
biosequence = "TTACCACGGTGAGCTGAGGTCGTTGATCCAACTC"
quantity_kind = "PBM binding z-score"
value_reported = -0.279

[[record]]
biosequence = "ATATCTAGGTTATCGGGTCATTCAGTTTGCGCAT"
quantity_kind = "PBM binding z-score"
value_reported = 6.91

[[record]]
biosequence = "CCTGCTGGGCCAAAAAGGTCATTGATGCCGATAA"
quantity_kind = "PBM binding z-score"
value_reported = 1.24


Give PBM binding z-score for the following sequence: `CTCGAAAGCTCGGTTGAGGTGAGTATACGGATAA`
-0.189

Give PBM binding z-score for the following sequence: `TCATATAAGTAAAGGTGAAAGTCGAACGATATGA`
1.98

Give PBM binding z-score for the following sequence: `ATCACTAGGTAAAAGTTCAGTGAATCCCGAGGAT`
8.25

* * *

test system: PPARa:RXRa (NR concentration 270 nM, RXRa partner concentration 90 nM); assay: PBM binding z-score (relative to random genomic background probes); higher = stronger binding; sequences stand for … in GC…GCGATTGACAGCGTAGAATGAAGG
Respond with true for PBM binding z-score values of 0.7 and above, false for values below.

[[record]]
biosequence = "ACTAGCAGGCCATGGGTCACTCAAGATTAGTCCG"
label_value = "true"

[[record]]
biosequence = "ATCGAAAGGTGGTGAGGTGAGTATACAGAAAGGC"
label_value = "true"

[[record]]
biosequence = "ATCGAAAGGTCGACGAGGGGAGTATACACCGTTT"
label_value = "true"


Hello, I need to know if `AGAATGAGGTTATTAAGATCAGAGAATTGCGGTC` has measured PBM binding z-score not below 0.7. Thanks!
true

Hello, I need to know if `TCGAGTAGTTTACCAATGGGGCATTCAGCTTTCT` has measured PBM binding z-score not below 0.7. Thanks!
false

Hello, I need to know if `ATCTCGAGGTAAGACTCAGTTCAGTGAAGAACGC` has measured PBM binding z-score not below 0.7. Thanks!
false

* * *

test system: PPARg DBDmut IVT, anti-PPARg (DBD mutation: PPARg1 K132A/R137A, NR concentration 270 nM); experiment: PBM binding z-score (relative to random genomic background probes); higher = stronger binding; sequences stand for … in GC…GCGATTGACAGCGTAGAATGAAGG
Listing: PBM binding z-score of selected sequences
Give the figure by itself; no unit, no explanation.

Some solved entries appear below for comparison.
[[record]]
biosequence = "CGAACTAGGTCATCCAGGACAGTGACTACATTGA"
value_reported = 0.771

[[record]]
biosequence = "CAGCCTAGGTCAGGGCCTGTATAGGAGGAACGTT"
value_reported = -1.4

[[record]]
biosequence = "GCTTACGGGTCAAAGGCTATAGCATGAATAGAAT"
value_reported = 0.898


Next item in the queue.
Report value: PBM binding z-score, system: PPARg DBDmut IVT, anti-PPARg (DBD mutation: PPARg1 K132A/R137A, NR concentration 270 nM), sequence: `GCTAGGTGGTCAGTAAAAGGTCACACACCGGTCG`
0.226

* * *

test system: RXRa DBDmut IVT, anti-RXR (DBD mutation: RXRa K156A/R161A, NR concentration 90 nM); assay: PBM binding z-score (relative to random genomic background probes); higher = stronger binding; sequences stand for … in GC…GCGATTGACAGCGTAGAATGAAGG
quantity kind: PBM binding z-score
Give the figure by itself; no unit, no explanation.

Some solved entries appear below for comparison.
[[record]]
biosequence = "CCGACTGGAGCATAAGGTTACCATAAGCCAGCCC"
value_reported = 0.0357

[[record]]
biosequence = "GCTATTAGCTGAAAGGGCAACCGAATGATTCTCG"
value_reported = 0.616

[[record]]
biosequence = "ATCTATAGGTAAAAGTTCAGTGAATCCCGAGGAT"
value_reported = 0.768

[[record]]
biosequence = "CGTCCAAGGTCAGAGAGTTCAGTGAATGCCGAGT"
value_reported = 3.78

[[record]]
biosequence = "TCTAGTTGGTCACCGAGGTCACACACGACGGGTA"
value_reported = 1.4


Give PBM binding z-score for the following sequence: `ACTATTAGTTGACTTAGGTCAACCGATACGACGC`
1.07

Give PBM binding z-score for the following sequence: `AATACAGGGTCATCCTAGGCCAGAGTACGCACAG`
3.9

Give PBM binding z-score for the following sequence: `TCAGACAGGTGAAGGTAACTCACGTACGCAGTCG`
1.3

Give PBM binding z-score for the following sequence: `AGAACGAGGTTAAGATCAGGGAAACAGAATACAT`
1.03

Give PBM binding z-score for the following sequence: `ACTAGTTCGTCAGCTGAGGTCACACACAATTCGG`
3.38

Give PBM binding z-score for the following sequence: `CAAACTAGGTGAAAGGTCAAAGTCGAGCCAACCA`
2.27

Give PBM binding z-score for the following sequence: `ATATCTAGGTTAAGGGTCATTCAGGTTGGTTCGC`
2.66

* * *

system: PXR homodimer (NR concentration 270 nM); experiment: PBM binding z-score (relative to random genomic background probes); higher = stronger binding; sequences stand for … in GC…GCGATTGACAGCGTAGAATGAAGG
quantity kind: PBM binding z-score
Give the figure by itself; no unit, no explanation.

[[record]]
biosequence = "TGAATGAGGTTAAAGATCAGGGAGCGTGGCGTCG"
value_reported = -0.192

[[record]]
biosequence = "ATATGTAGGTTACAGCCGGGTCATTCAGGCTATG"
value_reported = 1.66

[[record]]
biosequence = "TCTTGTACATCAACAGGAGGTTAAGAAAGATCGA"
value_reported = 0.161

[[record]]
biosequence = "TAGCCTAGGTCAGATCGGGTCAGTATACGCTATA"
value_reported = -0.399

[[record]]
biosequence = "TCTGCTAGGTCAACGATAGTCAGCTAATCTGCTA"
value_reported = -0.482

[[record]]
biosequence = "ATCTCTAGGTAACCAAGTTGAGTGAATGCCGAAC"
value_reported = 0.194

[[record]]
biosequence = "ATATCTAGGTTACATCCGGGTCATTCAGGCTATG"
value_reported = 3.73

[[record]]
biosequence = "GGAACGAGGGCAAGGTTGATAGCATCTGTCGACG"
value_reported = -0.0103

[[record]]
biosequence = "TAGCCTAGGTAAGATCGGGCCAGTATACGCTATA"
value_reported = -0.73

[[record]]
biosequence = "CAGCCTAGGTCAGGGCCATTATAGGAGGAACGTT"
value_reported = -0.202


Give PBM binding z-score for the following sequence: `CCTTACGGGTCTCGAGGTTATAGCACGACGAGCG`
-0.353

Give PBM binding z-score for the following sequence: `AGACTGAGGTTATACGTAGATCAGGGAAGAAAGT`
0.133
